This collection of values is drawn from patent US7825151B2.

- testSystem: CB2 receptor (Homo sapiens, UniProt P34972)
- Construct: expressed in transfected cells; host or cells: SK-N-MC cells, stably transfected with pcDNA3 CB-2 (human)
- Sequence (P34972 whole entry): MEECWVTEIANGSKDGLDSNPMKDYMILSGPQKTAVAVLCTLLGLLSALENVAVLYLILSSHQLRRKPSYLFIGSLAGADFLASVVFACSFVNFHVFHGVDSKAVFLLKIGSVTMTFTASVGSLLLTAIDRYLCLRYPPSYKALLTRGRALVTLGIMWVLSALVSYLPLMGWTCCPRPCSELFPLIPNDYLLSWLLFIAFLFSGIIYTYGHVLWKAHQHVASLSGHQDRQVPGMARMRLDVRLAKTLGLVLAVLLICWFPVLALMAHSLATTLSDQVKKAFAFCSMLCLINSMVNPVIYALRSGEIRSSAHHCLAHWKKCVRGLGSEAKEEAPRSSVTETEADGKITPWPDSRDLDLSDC
- assayProcedure: Functional cell-based CRE β-gal assay, CB2 (adenylate cyclase activity)
pEC50: −log10 of the molar value.
Label rule, in plain words: pEC50 of 8 and up is label 1, under 8 is label 0.

compound | assignedCategory
COC[C@H](NC(=O)c1n[nH]c2c1CCCCC[C@@H]2Cc1cccc(Cl)c1)c1ccccc1 (relative stereo) [Cpd 27] | label 0
CC12CCC(C1)C(C)(C)C2NC(=O)c1nn(C2CCCCC2)c2c1CCCCCC2 (centres unmarked) [Cpd 1] | label 1
O=C(NCC12CC3CC(CC(C3)C1)C2)c1nn(C2CCCC2)c2c1CCCCCC2 [Cpd 3] | label 0
COc1ccc([C@H](C)NS(=O)(=O)/C=C/c2n[nH]c3c2CCCCCC3Cc2cccc(Cl)c2)cc1 (some centres unmarked) [Cpd 20] | label 0
COC[C@H](NC(=O)c1n[nH]c2c1CCCCC[C@H]2Cc1cccc(Cl)c1)c1ccccc1 (relative stereo) [Cpd 26] | label 1
CC(NC(=O)c1nn(C2CCCCC2)c2c1CCCCCC2)C12CC3CC(CC(C3)C1)C2 (centres unmarked) [Cpd 6] | label 0
O=C(N[C@H](CO)c1ccccc1)c1n[nH]c2c1CCCCC[C@@H]2Cc1cccc(Cl)c1 (relative stereo) [Cpd 24] | label 0
C[C@H](NS(=O)(=O)/C=C/c1n[nH]c2c1CCCCCC2Cc1cccc(Cl)c1)c1ccccc1 (some centres unmarked) [Cpd 21] | label 0
O=C(NC(CO)c1ccccc1)c1n[nH]c2c1CCCCCC2Cc1cccc(Cl)c1 (centres unmarked) [Cpd 22] | label 1

###

- testSystem: human CB1 receptor (Homo sapiens)
- Construct: expressed in transfected cells; host or cells: SK-N-MC cells, stably transfected with pcDNA3 CB-1 (human)
- assayProcedure: Functional cell-based CRE β-gal assay, CB1 (adenylate cyclase activity)
- conditionSummary: SK-N-MC cells, CRE β-gal, forskolin; agonist; read-out: CB1 Receptor Functional Agonist Activity EC50

compound | EC50 / nM
O=C(N[C@@H](CO)c1ccccc1)c1n[nH]c2c1CCCCCC2Cc1cccc(Cl)c1 (stereo in doubt) [Cpd 23] | 88

###

- testSystem: CB2 receptor (Homo sapiens)
- Construct: expressed in transfected cells; host or cells: SK-N-MC cells, stably transfected with pcDNA3 CB-2 (human)
- assayProcedure: Modified functional cell-based assay (Beta-Glo luminescence), CB2 agonist

compoundStructure | testSystem | EC50, nM
O=C(N[C@@H](CO)c1ccccc1)c1n[nH]c2c1CCCCC/C2=C\c1cccc(Cl)c1 | CB2 receptor (Homo sapiens) | 18

###

# Lookup of reported EC50 keyed by entry
- testSystem: human CB1 receptor (Homo sapiens, UniProt P21554)
- Construct: expressed in transfected cells; host or cells: SK-N-MC cells, stably transfected with pcDNA3 CB-1 (human)
- Sequence (P21554 whole entry): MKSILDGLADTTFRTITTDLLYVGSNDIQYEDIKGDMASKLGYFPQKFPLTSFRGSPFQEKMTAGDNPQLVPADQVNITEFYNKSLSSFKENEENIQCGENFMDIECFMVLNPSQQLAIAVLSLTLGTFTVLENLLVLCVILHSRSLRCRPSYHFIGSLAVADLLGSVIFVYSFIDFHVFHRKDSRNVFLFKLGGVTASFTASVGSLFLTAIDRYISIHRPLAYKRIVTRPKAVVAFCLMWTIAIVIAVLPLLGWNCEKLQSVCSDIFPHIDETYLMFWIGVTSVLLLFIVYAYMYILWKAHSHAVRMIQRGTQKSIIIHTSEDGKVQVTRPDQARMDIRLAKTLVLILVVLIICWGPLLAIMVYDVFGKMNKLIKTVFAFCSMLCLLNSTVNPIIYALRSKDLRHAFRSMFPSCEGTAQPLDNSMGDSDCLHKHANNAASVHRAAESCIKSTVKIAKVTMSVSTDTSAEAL
- assayProcedure: Functional cell-based CRE β-gal assay, CB1 (adenylate cyclase activity)

molecule | testSystem | EC50 / nM
O=C(NC(CO)c1ccccc1)c1n[nH]c2c1CCCCCC2Cc1cccc(Cl)c1 (stereo not shown) | human CB1 receptor (Homo sapiens, UniProt P21554) | 114
COC[C@H](NC(=O)c1n[nH]c2c1CCCCC[C@H]2Cc1cccc(Cl)c1)c1ccccc1 (relative stereo) | human CB1 receptor (Homo sapiens, UniProt P21554) | 70
C[C@@H](NC(=O)c1nn(-c2ccc(Cl)cc2Cl)c2c1CCCCC/C2=C\c1ccc(F)cc1)c1ccccc1 | human CB1 receptor (Homo sapiens, UniProt P21554) | 10
C[C@@H](NC(=O)c1nn(-c2ccc(Cl)cc2Cl)c2c1CCCCC/C2=C\c1ccc(F)cc1)c1ccccn1 | human CB1 receptor (Homo sapiens, UniProt P21554) | 2
